Give pIC50 for every item shown.
Target: UniProtKB O43614
Test: FLIPR Ca2+ Flux Assay, orexin-2 receptor antagonism in CHO cells
Conditions: CHO cells expressing the human orexin-2 receptor; agonist 70 pM Ala-6,12 orexin-A; read-out: hOX2 FLIPR IC50
Answer as the number alone; pIC50 is minus log10 of concentration in mol/L.

In: So what's the measured pIC50 for this one? COCc1ccccc1C(=O)N1C[C@H](Oc2nccn3c(C(F)F)cnc23)CC[C@H]1C [Example 45]
Out: 6.97

In: Moving on to the next compound: Cc1cn2ccnc(O[C@@H]3CC[C@@H](C)N(C(=O)c4cscc4-c4ncccn4)C3)c2n1 [Example 13]
Out: 7.20

In: Moving on to the next compound: C[C@@H]1CC[C@@H](Oc2nccn3c(C(F)F)cnc23)CN1C(=O)c1ccc(F)cc1-n1nccn1 [Example 43]
Out: 7.80

====

Target: human orexin-2 receptor (Homo sapiens (Human), UniProt O43614)
Sequence (O43614 whole entry): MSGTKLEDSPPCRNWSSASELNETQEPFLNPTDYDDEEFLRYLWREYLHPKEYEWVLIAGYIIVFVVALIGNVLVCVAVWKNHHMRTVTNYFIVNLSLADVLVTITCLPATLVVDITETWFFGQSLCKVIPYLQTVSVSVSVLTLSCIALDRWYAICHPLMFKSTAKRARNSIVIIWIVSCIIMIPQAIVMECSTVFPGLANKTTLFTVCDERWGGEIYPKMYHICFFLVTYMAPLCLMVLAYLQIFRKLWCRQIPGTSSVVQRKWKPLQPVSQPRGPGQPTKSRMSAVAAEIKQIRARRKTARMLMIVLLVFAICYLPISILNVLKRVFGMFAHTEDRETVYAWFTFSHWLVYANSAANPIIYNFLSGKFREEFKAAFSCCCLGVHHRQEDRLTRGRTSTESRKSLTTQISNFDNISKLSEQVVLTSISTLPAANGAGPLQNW
Assay: FLIPR Ca2+ Flux Assay, orexin-2 receptor antagonism in CHO cells
Conditions: CHO cells expressing the human orexin-2 receptor; agonist 70 pM Ala-6,12 orexin-A; read-out: hOX2 FLIPR IC50
Give IC50 for every item shown.
Express the result in nM but write the number alone.

In: Look up IC50 with human orexin-2 receptor (Homo sapiens (Human), UniProt O43614) for this molecule: Cc1cnn2ccnc(O[C@@H]3CC[C@@H](C)N(C(=O)c4ccccc4-n4nccn4)C3)c12 [Example 89]
Out: 19.2

In: Moving on to the next molecule: CCCc1ccccc1C(=O)N1C[C@H](Oc2nccn3nccc23)CC[C@H]1C [Example 82]
Out: 33.9

In: Moving on to the next molecule: C[C@@H]1CC[C@@H](Oc2nccn3c(C(F)F)cnc23)CN1C(=O)c1nccnc1-n1cccn1 [Example 46]
Out: 61.9

In: Moving on to the next molecule: C[C@@H]1CC[C@@H](Oc2nccn3c(C(F)F)cnc23)CN1C(=O)c1ccccc1C1(C#N)CC1 [Example 42]
Out: 5

In: Moving on to the next molecule: C[C@@H]1CC[C@@H](Nc2nccc3c2cnn3C)CN1C(=O)c1ccccc1-n1nccn1 [Example 96]
Out: 60

In: Moving on to the next molecule: C[C@@H]1CC[C@@H](Oc2nccn3ncc(Br)c23)CN1C(=O)c1ccccc1-n1nccn1 [Example 88]
Out: 7.3

In: Moving on to the next molecule: C[C@@H]1CC[C@@H](Oc2nccn3c(C(F)(F)F)cnc23)CN1C(=O)c1ccccc1C1(C#N)CC1 [Example 59]
Out: 12.8

In: Moving on to the next molecule: C[C@@H]1CC[C@@H](Oc2nccn3ccnc23)CN1C(=O)c1ccccc1CS(C)(=O)=O [Example 77]
Out: 27.9

====

Biological target: human orexin-2 receptor (Homo sapiens (Human), UniProt O43614)
Test: FLIPR Ca2+ Flux Assay, orexin-2 receptor antagonism in CHO cells
Conditions: CHO cells expressing the human orexin-2 receptor; agonist 70 pM Ala-6,12 orexin-A; read-out: hOX2 FLIPR IC50
Give pIC50 for every item shown.
Answer as the number alone; pIC50 is minus log10 of concentration in mol/L.

In: So what's the measured pIC50 for this one? COC(=O)c1ccccc1C(=O)N1C[C@H](Oc2nccn3nccc23)CC[C@H]1C
Out: 7.35

In: Moving on to the next molecule: C[C@@H]1CC[C@@H](Oc2nccn3nccc23)CN1C(=O)c1ccccc1-n1nccn1
Out: 7.57

In: Moving on to the next molecule: C[C@@H]1CC[C@@H](Oc2nccn3c(C(F)F)cnc23)CN1C(=O)c1cccnc1OCC(F)F
Out: 7.50

In: Moving on to the next molecule: Cc1cn2ccnc(O[C@@H]3CC[C@@H](C)N(C(=O)c4ccc(F)cc4-n4nccn4)C3)c2n1
Out: 7.51

In: Moving on to the next molecule: C[C@@H]1CC[C@@H](Nc2nccc3ncn(C)c23)CN1C(=O)c1ccccc1-n1nccn1
Out: 7.02

In: Moving on to the next molecule: Cc1cn2ccnc(O[C@@H]3CC[C@@H](C)N(C(=O)c4ccccc4-n4nccn4)C3)c2n1
Out: 8.10

In: Moving on to the next molecule: C[C@@H]1CC[C@@H](Oc2nccn3c(C(F)F)cnc23)CN1C(=O)c1ccccc1-c1cnccn1
Out: 7.67

In: Moving on to the next molecule: C[C@@H]1CC[C@@H](Oc2nccn3c(C(F)F)cnc23)CN1C(=O)c1ccccc1-n1ncnn1
Out: 8.02

In: Moving on to the next molecule: C[C@@H]1CC[C@@H](Oc2nccn3c(C(F)F)cnc23)CN1C(=O)c1cscc1-n1nccn1
Out: 7.34

In: Moving on to the next molecule: C[C@@H]1CC[C@@H](Oc2nccn3c(C(O)C(F)F)cnc23)CN1C(=O)c1ccccc1-n1nccn1 (stereo partly shown)
Out: 6.74

In: Moving on to the next molecule: C[C@@H]1CC[C@@H](Oc2nccn3c(Cl)cnc23)CN1C(=O)c1ccccc1C1(C#N)CC1
Out: 8.02

In: Moving on to the next molecule: C[C@@H]1CC[C@@H](Oc2nccn3c(Cl)cnc23)CN1C(=O)c1ccccc1-n1nccn1
Out: 7.92

In: Moving on to the next molecule: Cc1cn2ccnc(O[C@@H]3CC[C@@H](C)N(C(=O)c4ccsc4-c4ncccn4)C3)c2n1
Out: 7.43

In: Moving on to the next molecule: Cc1ncc2c(O[C@@H]3CC[C@@H](C)N(C(=O)c4ccccc4-n4nccn4)C3)nccn12
Out: 7.63

In: Moving on to the next molecule: C[C@@H]1CC[C@@H](Oc2nccn3c(C(F)(F)F)cnc23)CN1C(=O)c1ccsc1-n1nccn1
Out: 7.69

In: Moving on to the next molecule: C[C@@H]1CC[C@@H](Oc2nccn3nccc23)CN1C(=O)c1ccccc1-c1ncccn1
Out: 7.81

Source of measurements: patent US10526336B2
